# Test system: SF-268 CNS
# ASSAY PROCEDURE: NCI-60 one-dose screen, 48 h (100 = growth as untreated, 0 = no growth, -100 = all killed)
# CONDITION SET: 10 µM unless noted
This is part of a sample that, as a whole, favours compounds with a hit. Of some 83,000 tested, about 20% had one in any assay.
MEASURE: growth (%)
Express the result in % but write the number alone.

Report its growth with SF-268 CNS as the test system: `COC(=O)[C@]12CC[C@@H](C)[C@H](C)[C@@H]1C1=CC[C@@H]3[C@@]4(C)C(C=O)=C[C@@](C)(COC(=O)c5ccco5)[C@@H]4[C@H](O)C[C@@]3(C)[C@]1(C)CC2` 2.92

Give growth for this entry on SF-268 CNS: `COc1cc(-c2nn(-c3cccc(NC(=O)Nc4cccc(C(F)(F)F)c4)c3)cc2-c2ccncc2)ccc1Cl` 2.35

For SF-268 CNS, give growth of the listed molecule: `COc1ccc(C(=O)c2cc(OC)c(OC)c(OC)c2OC)cc1O` 38.9

Report value: growth, system: SF-268 CNS, molecule: `COc1ccc(-c2ccc(C)n2-c2ccc(-c3nc4cc(Cl)ccc4s3)cc2)cc1` 111

---

# System: NCI-H23 lung
# ASSAY PROCEDURE: NCI-60 one-dose screen, 48 h
# CONDITION SET: 10 µM unless noted
The panel holds about 83,000 compounds, 20% with a hit somewhere; the sample as a whole holds those more often. Activity calls are given as the source filed them. Rule for the calls: active = growth percent below 10; inactive = the rest.
Respond only with the outcome that fits, drawn from active, inactive

Called result for `Cn1ccc(=O)c(S(N)(=O)=O)c1` inactive

Assay outcome for CC1CN(c2oc(-c3ccccc3)nc2C#N)CC(C)O1 (stereo unspecified) : what was it? inactive

Which outcome did this test record for the compound `COc1cc(-c2nc(N=Nc3c(O)[nH]c4ccc(Br)cc34)[nH]c(=O)c2C#N)cc(OC)c1OC` ? inactive

Answer briefly: the call reported for `CCN(CC)CCOC(=O)C(c1ccccc1)(c1ccccc1)C(C)C` in this assay. inactive

Each compound tested received a call. Report the one for `c1ccc(-c2nnc(-c3ccccn3)s2)nc1` . inactive

Record request — test call for COc1cc(C2C3=C(COC3=O)Nc3cc4c(cc32)CCC4)cc2c1OCO2 (stereo unspecified) inactive

Which outcome was entered for the compound `COc1cc2c(cc1O)CCN1C[C@@H](CC(C)C)[C@@H](O)C[C@@H]21` in this test? inactive

How was `CCCCN(CCCC)C(=O)CC` classified in this test? inactive

// outcome(item) with item = `O=C(O)/C=C/C(=O)c1ccc(Cl)cc1` inactive

Hi team, can someone confirm the assay call for `CCOC(=O)c1c(/N=C2\SC(=O)/C(=C\C(=O)OC)N2NC)sc2c1CCN(C(=O)OCC)C2` ? inactive

Per the records of this test, what outcome belongs to C=C1CC2(OC1=O)C(=O)N(CCCN1C(=O)C3(CC(=C)C(=O)O3)c3ccccc31)c1ccccc12 (stereo unspecified) ? inactive

In this assay, the call recorded for `S=c1[nH]nc(-c2cc3ccc2CCc2ccc(cc2)CC3)n1-c1ccccc1` was what? inactive

Hey, what did the test say about `CC(C)(C)n1cc(-c2ccnc(NCCNS(=O)(=O)c3ccc(C(F)(F)F)cc3)c2)c(-c2cccc(O)c2)n1` ? inactive

Recorded call for `Cc1nc2cncc(C#Cc3cncc(C(=O)Nc4ccc(CN5CCN(C)CC5)c(C(F)(F)F)c4)c3)c2nc1C` ? active

Per the records of this test, what outcome belongs to `CCc1cnc(=S)n(-c2ccccc2)c1` ? inactive

Short answer needed: outcome of this test for `CCOC(=O)CN1/C(=N/c2sc3c(c2C(=O)OCC)CCN(C(=O)OCC)C3)SC(=O)/C1=C\C(=O)OC` ? inactive

Called result for CC12CCCC(CC(=O)c3[nH]c4ccccc4c31)C2 (stereo unspecified) inactive

GET /call?item= `Cn1ccc(Nc2nccc(Oc3ccc(C(=O)Nc4cccc(F)c4)c(Cl)c3)n2)c1` returns the recorded outcome of this test. inactive

Status in this test for `Cc1nn(-c2ccc([N+](=O)[O-])cc2)c2ncnc(NCCc3ccccc3)c12` ? inactive

Test call for this compound, please: `Cc1ccc2ccccc2c1C[n+]1ccccc1` inactive

Please state the recorded outcome for this compound: `COc1ccc(-n2c(=O)sc3c(Cl)nc(C)nc32)c(OC)c1` inactive

Tell me the recorded outcome of this test for `CC(C)c1ccc2occ(C=C3C(=O)NC(=O)NC3=O)c(=O)c2c1` . inactive

Outcome? `CCCCCCCCN(CCCCCCCC)CCCCCCNc1cc(OC)cc2cccnc12` inactive

Could you check what this test reported for `Cc1cc(N/N=C/c2nc(-c3ccccc3)oc2C)c2cc(Cl)ccc2n1` ? active

Which result was noted for this compound in the test: `C=C[C@@H]1C[C@H](O)Cc2c(C)cc(C)cc2N1` inactive

State the result this test recorded for `C=C(C)[C@@H]1CC[C@]2(C(=O)N3CCNCC3)CC[C@]3(C)[C@H](CC[C@@H]4[C@@]5(C)C/C(=C/c6ccncc6)C(=O)C(C)(C)[C@@H]5CC[C@]43C)[C@@H]12` . inactive

Could you kindly confirm the outcome this assay logged for `Cc1cc(N)n(S(=O)(=O)c2oc(-c3ccccc3)nc2C#N)n1` ? inactive

Write down the call the test reported for this compound. Item: `COc1ccc(-c2[nH]nc(N)c2-c2cc(OC)c3c(c2)OCO3)cc1` inactive

State the result this test recorded for `CC(C)(C)n1cc(-c2ccnc(NCCCNS(=O)(=O)c3cccc(F)c3)c2)c(-c2cccc(O)c2)n1` . inactive

Could you please tell me the result logged for `CC(=O)Nc1nc(N)nc(NC(C)=O)c1N=O` in this assay? inactive

Answer briefly: the call reported for `O=C(CSc1nc2ccccc2[nH]1)c1ccc(N2CCOCC2)cc1` in this assay. inactive

For this compound, state the assay outcome: `O=[N+]([O-])c1cc(S(=O)(=O)Oc2ccccc2)ccc1Cl` inactive

# outcome recorded in this test, key = `O=S(=O)(NCCNc1nccc(-c2c(-c3cccc(O)c3)nc3sccn23)n1)c1ccc(F)cc1` inactive

Status in this test for `O=C1CCCCC1(c1ccccc1)c1ccccc1` ? inactive

For this compound, state the assay outcome: `COc1cccc(CC(C)=C(c2ccc(OCCN3CCCCC3)cc2)c2ccc(OCCN3CCCCC3)cc2)c1` inactive

Hi team, can someone confirm the assay call for CCC(=O)OC1=CN2C(=NC(c3ccc(N)cc3)=CC2c2cc(OC)c(OC)c(OC)c2)S1 (stereo unspecified) ? inactive

Please state the recorded outcome for this compound: `CN(CCCCN(C[C@H]1Cc2ncccc2CN1)[C@H]1CCCc2cccnc21)C1CCC(F)(F)CC1` inactive

Entry `COc1ccc(C(=O)N2NC(=O)/C(=C/c3ccc(Br)cc3)N=C2c2ccccc2)cc1` : call = ? inactive

Query: recorded result category for CCOC(=O)C1CCNC(=O)C1=O (stereo unspecified) in this test inactive

Identify the outcome logged in this assay for the compound shown: `Fc1ccc(Nc2ncnc3ccc(-c4cnc5[nH]ccc5c4)cc23)cc1Cl` inactive

For `COc1ccc(-n2c(-c3ccccc3)c(-c3ccccc3)c3c(SCC(=O)N/N=C/c4ccc(Cl)cc4)ncnc32)cc1` , what call appears in the results of this test? inactive

Each recorded value in this set is attributed to PubChem BioAssay (NCI).
